Where do these numbers come from? They come from patent US20260365670A1.

The following molecules are shown together with reported IC50 values.
TESTED_TARGET: EGFR[T790M/C797S/d746-750] (Homo sapiens, UniProt P00533, C797S/DEL746-750/T790M)
Construct: purchased Carna Bio
Sequence (P00533 with tags, fused parts or gaps DEL746-750/T790M/C797S limits assumed): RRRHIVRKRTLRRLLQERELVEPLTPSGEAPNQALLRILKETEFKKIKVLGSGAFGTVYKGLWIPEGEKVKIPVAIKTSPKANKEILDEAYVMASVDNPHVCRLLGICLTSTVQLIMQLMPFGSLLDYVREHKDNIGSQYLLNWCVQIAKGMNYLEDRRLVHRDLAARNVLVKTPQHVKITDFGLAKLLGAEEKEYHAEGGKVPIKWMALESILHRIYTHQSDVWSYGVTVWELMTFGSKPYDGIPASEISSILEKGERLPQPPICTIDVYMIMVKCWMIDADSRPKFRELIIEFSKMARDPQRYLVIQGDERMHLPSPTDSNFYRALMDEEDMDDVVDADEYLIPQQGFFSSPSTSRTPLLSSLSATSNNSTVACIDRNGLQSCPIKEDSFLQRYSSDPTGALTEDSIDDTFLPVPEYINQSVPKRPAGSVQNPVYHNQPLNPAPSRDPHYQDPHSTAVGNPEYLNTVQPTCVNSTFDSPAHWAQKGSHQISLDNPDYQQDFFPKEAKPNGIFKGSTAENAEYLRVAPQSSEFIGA
ASSAY_REMARKS: Inhibition of EGFR[T790M/C797S/d746-750] biochemical enzymatic activity (HTRF)
CONDITION_DESCRIPTION: EGFR T790M-C797S-Del19, 1 mM ATP, 1 h, room temperature, read-out: IC50 (nM) @T790M - C797S - Del19
Please state the figure in nM; there is no need to write the unit.

// solved cases for IC50 follow
CN1CCC12CCN(c1ccc3nc4n(c3c1)C13CCC(CN(CCOc5c(cnn5C)-c5cc(cn(C)c5=O)C(=O)N4)C1)C3)CC2 (single isomer, unassigned) [Example A67A] | 1640
CN1CCC2(CCN(c3ccc4nc5n(c4c3)C34CCC(CN(CCOc6c(cnn6C)-c6cc(cn(C)c6=O)C(=O)N5)C3)C4)CC2)C1 (single isomer, unassigned) [Example A82A] | 629
CN(C)C1CCN(c2ccc3nc4n(c3c2)C23CCC(CN(CCOc5c(cnn5C)-c5cc(cn(C)c5=O)C(=O)N4)C2)C3)CC1(F)F (single isomer, unassigned) [Example A97B] | 4.8
C[C@@H]1CCCOc2c(cnn2C)-c2cc(cn(C)c2=O)C(=O)Nc2nc3ccc(N(C)CCN(C)C)cc3n2C1 | 2.4
C[C@@H]1CCCOc2c(cnn2C)-c2cc(cn(C)c2=O)C(=O)Nc2nc3ccc(N4CC(N(C)C)C4)cc3n2C1 | 1.2

Give me measured IC50, please, for this molecule: C[C@@H]1CCCOc2c(cnn2C)-c2cc(cn(C)c2=O)C(=O)Nc2nc3ccc(N4CCN(C5CC5)CC4)cc3n2C1
3.1

Note IC50 for the molecule shown: Cc1cc2cc(n1)-c1cnn(C)c1OCCN1CC3CCC(CC3)(C1)n1c(nc3ccc(N4CCN(C)CC4)cc31)NC2=O
7.3

For the molecule Cn1ncc2c1OCCN1CC3CCC(C3)(C1)n1c(nc3ccc(N4CCC(N5CC(F)C5)C4)cc31)NC(=O)c1cc-2c(=O)n(C)c1 (single isomer, unassigned) [Example A94B] , give its measured IC50 value.
8.4

Supply IC50 value. Item: CN1CCCC12CN(c1ccc3nc4n(c3c1)C13CCC(CN(CCOc5c(cnn5C)-c5cc(cn(C)c5=O)C(=O)N4)C1)C3)C2 (single isomer, unassigned) [Example A76B]
4.4

Please look at this molecule and report its IC50: C[C@@H]1CCCOc2c(cnn2C)-c2cc(cn(C)c2=O)C(=O)Nc2nc3ccc(N4CC(F)(CN(C)C)C4)cc3n2C1
15

Identify IC50 associated with the molecule CN(C)CCN(C)c1ccc2nc3n(c2c1)C12CCC(CC1)CN(CCOc1c(cnn1C)-c1cc(cn(C)c1=O)C(=O)N3)C2
7.7

====

Attribute: IC50
TESTED_TARGET: EGFR (d746-750 C797S) (Homo sapiens, UniProt P00533, C797S/DEL746-750)
Construct: purchased signalchem
Sequence (P00533 with tags, fused parts or gaps DEL746-750/C797S limits assumed): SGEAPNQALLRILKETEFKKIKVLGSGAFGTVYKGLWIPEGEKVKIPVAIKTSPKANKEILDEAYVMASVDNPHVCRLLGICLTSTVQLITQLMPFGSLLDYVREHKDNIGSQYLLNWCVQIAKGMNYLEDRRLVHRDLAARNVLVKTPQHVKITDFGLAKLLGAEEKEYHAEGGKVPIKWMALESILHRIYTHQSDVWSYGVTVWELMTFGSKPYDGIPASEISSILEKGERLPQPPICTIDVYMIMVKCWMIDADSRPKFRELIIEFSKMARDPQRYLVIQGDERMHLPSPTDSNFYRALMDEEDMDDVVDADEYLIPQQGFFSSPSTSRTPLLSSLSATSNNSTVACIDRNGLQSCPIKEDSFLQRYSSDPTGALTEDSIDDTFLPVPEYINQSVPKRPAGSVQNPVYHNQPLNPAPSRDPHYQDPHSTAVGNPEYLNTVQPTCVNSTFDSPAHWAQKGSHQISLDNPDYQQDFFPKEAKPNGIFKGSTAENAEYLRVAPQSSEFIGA
ASSAY_REMARKS: Inhibition of EGFR (d746-750 C797S) biochemical enzymatic activity (HTRF)
CONDITION_DESCRIPTION: EGFR Del19-C797S, 1 mM ATP, 1 h, room temperature, read-out: IC50 (nM) @Del19-C797S

Some entries whose results are on file:
Cn1ncc2c1OCCN(C1COC1)CCn1c(nc3ccccc31)NC(=O)c1cc-2c(=O)n(C)c1 [Example A5] | 628 nM
Cn1ncc2c1OCCN1CC3CCC(C3)(C1)n1c(nc3ccc(N4CCC(N5CC(F)C5)C4)cc31)NC(=O)c1cc-2c(=O)n(C)c1 (single isomer, unassigned) [Example A94B2] | 4.5 nM
CN1CCN(c2cc3c(cc2F)nc2n3C34CCC(CC3)CN(CCOc3c(cnn3C)-c3cc(cn(C)c3=O)C(=O)N2)C4)CC1 [Example A115] | 9.2 nM
C[C@@H]1CCCOc2ccc(F)cc2-c2cc(cn(C)c2=O)C(=O)Nc2nc3ccc(N4CCN(C)CC4)cc3n2C1 [Example A110] | 1.7 nM
C[C@@H]1CCCOc2c(cnn2C)-c2cc(cn(C)c2=O)C(=O)Nc2nc3ccc(N4CCC(N(C)C)C4)cc3n2C1 (stereo partly drawn) [Example A27] | 5.5 nM
C[C@@H]1CCCOc2cc(F)c(F)cc2-c2cc(cn(C)c2=O)C(=O)Nc2nc3ccc(N4CCN(C)CC4)cc3n2C1 [Example A111] | 18 nM
COCCN(C)c1ccc2nc3n(c2c1)C12CCC(CN(CCOc4c(cnn4C)-c4cc(cn(C)c4=O)C(=O)N3)C1)C2 (single isomer, unassigned) [Example A90A] | 749 nM
CCN1CCN(c2ccc3nc4n(c3c2)C[C@H](C)CCCOc2c(cnn2C)-c2cc(cn(C)c2=O)C(=O)N4)CC1 [Example A49] | 2.8 nM

Write down IC50 measured for item Cc1cc2cc(n1)-c1cnn(C3CC3)c1OCCN(CC(F)(F)F)CCn1c(nc3ccccc31)NC2=O [Example B6]
112 nM

For the molecule CN1CC2CN(c3ccc4nc5n(c4c3)C34CCC(CN(CCOc6c(cnn6C)-c6cc(cn(C)c6=O)C(=O)N5)C3)C4)CC2C1 (single isomer, unassigned) [Example A68B] , report IC50.
0.95 nM

Give IC50 for CN1CCC2(C1)CN(c1ccc3nc4n(c3c1)C13CCC(CN(CCOc5c(cnn5C)-c5cc(cn(C)c5=O)C(=O)N4)C1)C3)C2 (single isomer, unassigned) [Example A78B]
0.91 nM

State its IC50 for this molecule: CN(C)CC1(F)CN(c2ccc3nc4n(c3c2)C23CCC(CN(CCOc5c(cnn5C)-c5cc(cn(C)c5=O)C(=O)N4)C2)C3)C1 (single isomer, unassigned) [Example A72B]
0.92 nM
